Just for reference, the supplement of paper PMC9732359 is where these values come from.

# test: protein stability index of a GFP-peptide fusion (yeast GPS) (PSI 1-4); higher = more stable; sorted into four equal gates, so the index is relative within each strain
# runParameters: ubr1∆
sequences and their reported protein stability index
Give the figure only, with no unit attached.

sequenceContent: SRTRAHAQSKREGRHSG [RPL19A]
protein stability index: 2.99

sequenceContent: SLIENKKAKLVLIANDV [RPL8B]
protein stability index: 2.35

sequenceContent: KDNGMLIIDGQIIFGVV [RPO21]
protein stability index: 2.73

sequenceContent: FYVPQARNVTFDSLRNF [GRR1]
protein stability index: 2.22

sequenceContent: KTKYILQRPTATDEESV [CSN12]
protein stability index: 3.14

Query GFKWLNKLDEYHGLYTN [LIN1] yields protein stability index of 1.67

Query EGIEKMGVRTFSQKEMA [FAS2] yields protein stability index of 2.89

Query PNTRDAESEAITVTAKQ [SWI3] yields protein stability index of 3.15
